Below: a set of entries, each annotated with reported IC50.
- System: MGC-803 cells
- assayRemarks: MTT cell growth inhibition assay, MGC-803
- Format: cell-based, human
- conditions: Homo sapiens, MGC-803, 48 h, MTT, 48 h incubation, MGC-803

See these solved cases before continuing.
[[record]]
molecule = "Cc1ccc(/C=C(\\C#N)c2ccc(C)cc2)cc1 [Compound 13a, (Z)-2,3-Di-p-tolylacrylonitrile]"
resultvalue = "> 100 µM"

[[record]]
molecule = "COc1ccc(/C=C(\\C#N)c2cc(OC)c(OC)c(OC)c2)cc1 [Compound 6d]"
resultvalue = "6.18 µM"

[[record]]
molecule = "CC(=O)O[C@H]1C(=O)[C@@]2(C)[C@H]([C@H](OC(=O)c3ccccc3)[C@]3(O)C[C@H](OC(=O)[C@H](O)[C@@H](NC(=O)c4ccccc4)c4ccccc4)C(C)=C1C3(C)C)[C@]1(OC(C)=O)CO[C@@H]1C[C@@H]2O [Taxol, reference compound]"
resultvalue = "< 0.06 µM"


Continue with the next molecule.
Task: MGC-803 cells / IC50 / COc1cc(/C(C#N)=C/c2ccccn2)cc(OC)c1OC [Compound 7b] : value?
Output: > 100 µM

Cited source: paper PMC6161602
